From: paper PMC12040169

- assay: in vitro
- conditions.used: human, hela cells, % viability
measured.property: viability at 28.5 h, 10 µM (%)
One number for each entry, in %.

Past entries and their recorded results:
CSc1ccc(-n2cc(-c3ccc(F)cc3F)nn2)cc1 :: 99.3
CC(C)CN1CCC(C(=O)NC(c2ccc(Cl)cc2)c2cnccn2)CC1 (stereo not shown) :: 96.6
CCCCn1nnnc1NCc1cccc(OC)c1OC :: 104

Please give viability at 28.5 h, 10 µM, item by item, for the list that follows.
1. Cc1nc(C)c(C(=O)N2CCC(c3cc4cnccc4[nH]3)CC2)s1
2. Cc1ccccc1NC(=O)c1ccccc1Cl
3. COc1ccc(C(=O)NCCCc2nc3ccccc3[nH]2)cc1OC
4. CCOC(=O)CN1CCC(Oc2cncc(OCCN3CCOCC3)n2)C1 (stereo not shown)
5. COc1nccnc1OC1CCN(CCc2c[nH]c3ccccc23)CC1
6. Cc1cc(C)n2nc(C(=O)NCc3ccccn3)cc2n1
7. COc1ccc(CN2CCCN(c3cc(OCC4COc5ccccc5O4)ncn3)CC2)cc1 (stereo not shown) [CBK083255T]

result:
102
104
101
89.3
93.6
89.3
88

* * *

- assay: in vitro
- Design: Viability of infected HeLa host cells, resazurin conversion, bulk resorufin fluorescence relative to DMSO
- conditions.used: human, hela cells; bulk resorufin, mean of 2
Field: viability at 28.5 h, 5 µM. Provide a value for each of the compounds that follow.
Answers are plain numbers, in %.

O=C(N/N=C/c1ccc(Sc2cccc3cccnc23)o1)c1cccc(F)c1 [CBK263263] :: 99.9

Provide reported viability at 28.5 h, 5 µM for each item, in the same order as listed.
1. Cc1cc(Br)ccc1C(=O)NCCc1c[nH]c2ccc(Cl)cc12 [CBK159771]
2. CN1CCCN(c2cc(C(F)(F)F)c3scc(C(=O)NCc4cccc(F)c4F)c3n2)CC1 [CBK036386T]
3. O=C(CCN1CCCCC1)Nc1ccc2c(=O)n3c(nc2c1)/C(=C/c1ccccc1)CC3 [CBK017786]
4. Cc1c(C(=O)Nc2ccc(Cl)cc2)sc2c1C(c1cccnc1)CC(=O)N2 (centres unmarked) [CBK288233]
5. Cc1cc(OCC(=O)Nc2ccc(S(=O)(=O)Nc3onc(C)c3C)cc2)cc(C)c1Cl [CBK263491]
6. Fc1cc(CN2CCC3(CC2)OCCc2c3[nH]c3ccc(Br)cc23)cc(F)c1F [CBK039943]
7. O=[N+]([O-])c1cc([N+](=O)[O-])c2cccnc2c1NNc1nncc2ccccc12 [CBK110409]

result:
1. 106
2. 101
3. 90.4
4. 98.8
5. 100
6. 92.1
7. 89.1

* * *

- assay: in vitro
- conditions.used: human, hela cells, % viability
Label Condition met when viability at 28.5 h, 10 µM < 90%; otherwise Condition not met.

The examples below pair each entry with its known result.
CCN(CC)CCN1C(=O)C(O)=C(C(=O)c2ccc(C)o2)C1c1ccccn1 (stereo not shown) [CBK266584] :: Condition not met
CCN(CC)S(=O)(=O)c1cc(S(=O)(=O)N(CC)CC)c2cccc3c2c1NC(=O)O3 [CBK005022] :: Condition met
O=C(NCc1csc2c1CCCC2)N1CCC(CO)CC1 [CBK307476] :: Condition not met
NC(=O)c1cccc(-c2nc(-c3cc4ccccc4o3)cnc2N)c1 [CBK063996] :: Condition not met
O=C(O)CCC(=O)Nc1nc(-c2ccccc2)cs1 [CBK286947] :: Condition not met

Lab note: next molecule to report on.
query: Please indicate whether the reported viability at 28.5 h, 10 µM of Cc1nc2cc(OCc3nc(C(=O)NCC4CCOC4)co3)ccc2s1 (stereo not shown) [CBK307508] is strictly below 90%.
result: Condition met

* * *

- assay: in vitro
- conditions.used: human, hela cells, % viability
Give measured viability at 28.5 h, 10 µM for each item. Keep answers brief.
One number for each entry, in %.

For orientation, consider the following solved cases.
C=C(C)CN1CCN(C(=O)CSc2nccc3ccccc23)CC1 :: 88.4
COc1ccc(CCNC(=O)Cn2ccc(C3CCCNC3)n2)cc1 (stereo not shown) :: 76.3
O=C(Nc1ccc2[nH]ccc2c1)c1ccc(Br)cc1Cl :: 106
CCN(CC)C(=O)CN1CCC(Oc2cncc(OCCN3CCOCC3)n2)C1 (stereo not shown) :: 101
Cc1ccc(C)c(C2CCCN2C(=O)c2ccc(=O)n(CC(=O)N(C)c3ccccc3)c2)c1 (stereo not shown) :: 97.5

Would you mind listing viability at 28.5 h, 10 µM for each of the following molecules?
1. O=C(CSc1ccc(-n2ccnc2)nn1)Nc1cccnc1
2. Cc1cccc(Nc2nccc(-n3ccc(C)n3)n2)c1
3. O=C(O)CC1C(=O)NCCN1Cc1c(F)cccc1Cl (stereo not shown)
4. Cc1cc(Cl)ccc1CNC(=O)c1ccc(-c2ccoc2)nc1
5. Cc1cc(C(=O)Nc2c(C)noc2C)n[nH]1

result:
1: 97.6; 2: 79.7; 3: 88.6; 4: 101; 5: 87.4

* * *

- assay: in vitro
- conditions.used: human, hela cells, % viability
measured.property: viability at 28.5 h, 10 µM (%)
Answers are plain numbers, in %.

C[S+]([O-])CCNC(=O)c1cnn(-c2ccc(F)cc2)c1 (centres unmarked) :: 89.1
N#CCCN(CCc1ccccc1)S(=O)(=O)c1cccc2nsnc12 :: 104
CN1CCN(S(=O)(=O)c2ccc(N3CCOCC3)nc2)CC1 :: 87.9
FC(F)(F)Oc1cccc(OCCOc2nccnc2N2CCNCC2)c1 [CBK014323G] :: 100

Now turn to the next molecule.
query: Please look up its viability at 28.5 h, 10 µM: CO[C@H]1CC[C@H](C(=O)NC(Cc2ccsc2)c2cccnc2)CC1 (some centres unmarked)
result: 107

* * *

- assay: in vitro
- Set-up: Viability of infected HeLa host cells, resazurin conversion, bulk resorufin fluorescence relative to DMSO
- conditions.used: human, hela cells; bulk resorufin, mean of 2
Kindly state viability at 28.5 h, 1 µM for each of the entries shown.
Reply with the number and its unit after it.

Illustrative cases are given below, each with its answer.
Cn1c(=O)c2c(ncn2Cc2ccccc2)n(C)c1=O :: 111%
NC(=O)c1[nH]nc(C2OC(CO)C(O)C2O)c1O (stereo not drawn) :: 92.8%
CC1=C(C)C(=NNC(N)=S)C(C)=C(C)C1=NNC(N)=S :: 90.9%

Go through the list and state viability at 28.5 h, 1 µM for each entry.
1. COc1cccc(C(=O)N2CCC(Cc3ccc(-c4cccc(C)c4)cc3)(C(N)=O)CC2)c1
2. O=C(Nc1ccccc1C(=O)Nc1nnc(C(F)(F)F)s1)c1ccccc1Cl
3. Cc1cc(OCC(=O)Nc2ccc(S(=O)(=O)Nc3onc(C)c3C)cc2)cc(C)c1Cl
4. CCCCc1ccc(Nc2csc(N)n2)cc1
5. FC(F)(F)c1ccc(N2CCNCC2)nc1OCc1ccc2c(c1)OCCO2 [CBK003994A]
6. Cc1noc(NS(=O)(=O)c2ccc(NC(=O)CCN3C(=O)c4ccccc4C3=O)cc2)c1C

result:
["96.4%", "94.7%", "103%", "89.3%", "100%", "92.8%"]

* * *

- assay: in vitro
- conditions.used: human, hela cells, % viability
// returns not fulfilled unless viability at 28.5 h, 10 µM is strictly below 90%, in which case fulfilled

Cc1ccc(C(Cn2cncc2-c2cn(C)nc2C)N(C)C)cc1 (stereo not drawn) :: not fulfilled

query: Lab note: confirm whether the reported viability at 28.5 h, 10 µM for this molecule is below 90%, equality not counting. molecule: "COc1cc(NC(=O)Cc2cccc3ccccc23)c(C(=O)O)cc1OC"
result: not fulfilled

query: Confirm or reject: viability at 28.5 h, 10 µM of CCC1CC(C(F)(F)F)n2ncc(C(=O)O)c2N1 (stereo not drawn) lies strictly below 90%
result: fulfilled

query: Quick check: does COc1cc(CNC(=O)Cn2nnc(-c3ccc(CN4CCC(C)CC4)cc3)n2)cc(OC)c1OC [CBK144170C] have viability at 28.5 h, 10 µM under 90%?
result: not fulfilled

query: Dear reviewer, please state whether CCc1nnc(N/N=C/c2ccc(OCc3ccc(F)cc3Cl)c(OC)c2)n1N [CBK278173C] has viability at 28.5 h, 10 µM strictly beneath 90%.
result: fulfilled

query: Please indicate whether the reported viability at 28.5 h, 10 µM of "Cc1nn(Cc2cccc(C(=O)O)c2)c(C)c1Br" is strictly below 90%.
result: not fulfilled

query: Does the reported viability at 28.5 h, 10 µM of the following molecule sit strictly below 90%? "Nc1ncc(-c2ccccc2CO)nc1Nc1ccc2[nH]ccc2c1"
result: not fulfilled

* * *

I'd be grateful if you could share measured viability at 28.5 h, 10 µM for these entries.
- assay: in vitro
- conditions.used: human, hela cells, % viability
Numbers only, in %.

Please supply viability at 28.5 h, 10 µM for each of the following items, keeping them in order.
1. Cc1ccc(NC(=O)CCC(=O)N/N=C/c2ccco2)c(C)c1
2. COCc1ccc(Nc2ccccc2S(=O)(=O)c2ccccc2)cc1OCC1CCN(C(=O)OC(C)(C)C)CC1
3. C=CCn1cc(CN2CCCC(O)(c3ccc(F)cc3)CC2)c(C)n1 (stereo not shown)
4. Cn1nc(-c2ccc(S(=O)(=O)Nc3ncc([N+](=O)[O-])s3)s2)cc1C(F)(F)F

result:
1. 96.4
2. 94.6
3. 92
4. 109
